# experimentSummary: Biodistribution in BxPC3-luc tumor-bearing mice
# Type: in vivo, BALB/c nu/nu mice
# assayContext: female, BALB/c nu/nu, mouse, spleen, iv, 74 kBq, total radioactivity; 1 h post-injection, i.v.; read-out: Biodistribution, Spleen
Where a SMILES comes first, the peptide text is derived from it. The star is where a group is joined. DOTA = O=C(O)CN1CCN(CC(=O)O)CCN(CC(=O)*)CCN(CC(=O)O)CC1; AEEA = NCCOCCOCC(=O)O
reportedMetric: tissue uptake at 1 h (%ID/g)
# number only, unit %ID/g dropped from output

Problem: Fill in the blank: the reported tissue uptake at 1 h of CC[C@H](C)[C@H](NC(=O)COCCOCCNC(=O)CN1CCN(CC(=O)O)CCN(CC(=O)O)CCN(CC(=O)O)CC1)C(=O)N1CCC[C@H]1C(=O)N[C@@H](CC(C)C)C(=O)N1CCC[C@H]1C(=O)N1CCC[C@H]1C(=O)N1CCC[C@H]1C(=O)N[C@@H](CCCNC(=N)N)C(=O)N[C@@H](CCCNC(=N)N)C(=O)N1CCC[C@H]1C(=O)N[C@@H](Cc1ccccc1)C(=O)N[C@@H](Cc1ccccc1)C(=O)N[C@@H](CCCCN)C(=O)O [[^67Ga]27, [^67Ga]Ga-DOTA-EG2-IPLPPPRRPFFK, metal not drawn] ({DOTA-AEEA}-IPLPPPRRPFFK-OH) is ____.
Result: 0.13

====

# experimentSummary: Biodistribution in BxPC3-luc tumor-bearing mice
# Format: in vivo, BALB/c nu/nu mice
# assayContext: female, BALB/c nu/nu, liver, iv, total radioactivity; 1 h, blocking: co-injection of IPLPPPRRPFFK 1 mg/mouse; read-out: Biodistribution, Liver
Where a SMILES comes first, the peptide text is derived from it. The star is where a group is joined. DOTA = O=C(O)CN1CCN(CC(=O)O)CCN(CC(=O)*)CCN(CC(=O)O)CC1; AEEA = NCCOCCOCC(=O)O
reportedMetric: tissue uptake at 1 h (%ID/g)
Report only the number, with the unit %ID/g understood.

Problem: Query: tissue uptake at 1 h; subject: CC[C@H](C)[C@H](NC(=O)COCCOCCNC(=O)CN1CCN(CC(=O)O)CCN(CC(=O)O)CCN(CC(=O)O)CC1)C(=O)N1CCC[C@H]1C(=O)N[C@@H](CC(C)C)C(=O)N1CCC[C@H]1C(=O)N1CCC[C@H]1C(=O)N1CCC[C@H]1C(=O)N[C@@H](CCCNC(=N)N)C(=O)N[C@@H](CCCNC(=N)N)C(=O)N1CCC[C@H]1C(=O)N[C@@H](Cc1ccccc1)C(=O)N[C@@H](Cc1ccccc1)C(=O)N[C@@H](CCCCN)C(=O)O [[^67Ga]27, [^67Ga]Ga-DOTA-EG2-IPLPPPRRPFFK, metal not drawn] ({DOTA-AEEA}-IPLPPPRRPFFK-OH)
Result: 0.27
